Kindly state viability, T/C for each of the entries shown.
- Test system: 922993-354-T-J3-PDC complex spheroids, viability
- assay-info: Anticancer human tumor 922993-354-T-J3-PDC patient-derived endometrial carcinoma cell line growth inhibition [GQUAD]
- setup-conditions: second compound 0.0316 µM; first compound 10 µM; active compounds read low

Exercise: Param item = COc1cccc2c1C(=O)c1c(O)c3c(c(O)c1C2=O)CC(O)(C(=O)CO)CC3OC1CC(N)C(O)C(C)O1 (stereo not given) + CN(C)c1ccc(Nc2c3ccc(NC(=O)CCN4CCCC4)cc3nc3cc(NC(=O)CCN4CCCC4)ccc23)cc1 ; retrieve measured viability, T/C.
Key: 25.1%

Exercise: Param item = CC(=O)O[C@H]1C(=O)[C@@]2(C)[C@H]([C@H](OC(=O)c3ccccc3)[C@]3(O)C[C@H](OC(=O)[C@H](O)[C@@H](NC(=O)c4ccccc4)c4ccccc4)C(C)=C1C3(C)C)[C@]1(OC(C)=O)CO[C@@H]1C[C@@H]2O + CN(C)c1ccc(Nc2c3ccc(NC(=O)CCN4CCCC4)cc3nc3cc(NC(=O)CCN4CCCC4)ccc23)cc1 ; retrieve measured viability, T/C.
Key: 46.2%

Exercise: Param item = CC1COCCN1c1cc(C2(O)CC3CCC(C2)O3)c2cnn(-c3ccn[nH]3)c2n1 (stereo not given) + Cc1[nH]c2ccc(F)cc2c1-c1nc2c3cccnc3c3ncccc3c2[nH]1 ; retrieve measured viability, T/C.
Key: 15.1%

Exercise: Param item = CCCS(=O)(=O)Nc1ccc(F)c(C(=O)c2c[nH]c3ncc(-c4ccc(Cl)cc4)cc23)c1F + Cc1cnc(CNC(=O)c2c(=O)c3ccc(N4CCCN(C)CC4)nc3n3c2sc2ccccc23)cn1 ; retrieve measured viability, T/C.
Key: 63.8%

Exercise: Param item = COc1ncnc(C2CC2)c1-c1ncc2cnn(Cc3ccc(-c4nc(C(F)(F)F)cn4C(C)C)cc3)c2n1 + Cc1cnc(CNC(=O)c2c(=O)c3ccc(N4CCCN(C)CC4)nc3n3c2sc2ccccc23)cn1 ; retrieve measured viability, T/C.
Key: 63.4%

###

- Test system: 922993-354-T-J3-PDC complex spheroids, viability
- assay-info: Anticancer human tumor 922993-354-T-J3-PDC cell line growth inhibition [GQUAD];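 note: spheroids exposed to compounds for seven days; 100% = DMSO vehicle control viability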
- setup-conditions: second compound 0.0316 µM; first compound 0.1 µM; active compounds read low
property-name: viability, T/C (%)
Express it in %; write the number only.

Exercise: Look up viability, T/C with 922993-354-T-J3-PDC complex spheroids, viability for this compound: C#Cc1c(F)ccc2cc(O)cc(-c3ncc4c(N5CC6CCC(C5)N6)nc(OCC56CCCN5CC(F)C6)nc4c3F)c12 (stereo unspecified) + Cc1[nH]c2ccc(F)cc2c1-c1nc2c3cccnc3c3ncccc3c2[nH]1
Key: 93.3

Exercise: Look up viability, T/C with 922993-354-T-J3-PDC complex spheroids, viability for this compound: CC1COCCN1c1cc(C2(O)CC3CCC(C2)O3)c2cnn(-c3ccn[nH]3)c2n1 (stereo unspecified) + Cc1[nH]c2ccc(F)cc2c1-c1nc2c3cccnc3c3ncccc3c2[nH]1
Key: 67.6

Exercise: Look up viability, T/C with 922993-354-T-J3-PDC complex spheroids, viability for this compound: CC1COCCN1c1cc(-c2ccnn2C)c2ccnc(-c3ccn[nH]3)c2n1 (stereo unspecified) + Cc1[nH]c2ccc(F)cc2c1-c1nc2c3cccnc3c3ncccc3c2[nH]1
Key: 59.3

Exercise: Look up viability, T/C with 922993-354-T-J3-PDC complex spheroids, viability for this compound: C=CC(=O)N1CCN(c2nc(=O)n(-c3c(C)ccnc3C(C)C)c3nc(-c4c(O)cccc4F)c(F)cc23)C(C)C1 (stereo unspecified) + Cc1[nH]c2ccc(F)cc2c1-c1nc2c3cccnc3c3ncccc3c2[nH]1
Key: 86

Exercise: Look up viability, T/C with 922993-354-T-J3-PDC complex spheroids, viability for this compound: O=C(c1cc(Cc2n[nH]c(=O)c3ccccc23)ccc1F)N1CCN(C(=O)C2CC2)CC1 + CN(C)c1ccc(Nc2c3ccc(NC(=O)CCN4CCCC4)cc3nc3cc(NC(=O)CCN4CCCC4)ccc23)cc1
Key: 105

Exercise: Look up viability, T/C with 922993-354-T-J3-PDC complex spheroids, viability for this compound: CC1COCCN1c1cc(C2(O)CC3CCC(C2)O3)c2cnn(-c3ccn[nH]3)c2n1 (stereo unspecified) + CN(C)c1ccc(Nc2c3ccc(NC(=O)CCN4CCCC4)cc3nc3cc(NC(=O)CCN4CCCC4)ccc23)cc1
Key: 78.8

Exercise: Look up viability, T/C with 922993-354-T-J3-PDC complex spheroids, viability for this compound: C=CC(=O)N1CCN(c2nc(=O)n(-c3c(C)ccnc3C(C)C)c3nc(-c4c(O)cccc4F)c(F)cc23)C(C)C1 (stereo unspecified) + Cc1cnc(CNC(=O)c2c(=O)c3ccc(N4CCCN(C)CC4)nc3n3c2sc2ccccc23)cn1
Key: 89.1

Exercise: Look up viability, T/C with 922993-354-T-J3-PDC complex spheroids, viability for this compound: COc1cccc2c1C(=O)c1c(O)c3c(c(O)c1C2=O)CC(O)(C(=O)CO)CC3OC1CC(N)C(O)C(C)O1 (stereo unspecified) + CN(C)c1ccc(Nc2c3ccc(NC(=O)CCN4CCCC4)cc3nc3cc(NC(=O)CCN4CCCC4)ccc23)cc1
Key: 98

Exercise: Look up viability, T/C with 922993-354-T-J3-PDC complex spheroids, viability for this compound: CC(C)n1c(=O)n(C)c2cnc3cc(F)c(-c4ccc(OCCCN5CCCCC5)nc4)cc3c21 + Cc1[nH]c2ccc(F)cc2c1-c1nc2c3cccnc3c3ncccc3c2[nH]1
Key: 123

Exercise: Look up viability, T/C with 922993-354-T-J3-PDC complex spheroids, viability for this compound: Cc1cccc(N(C)C(=O)C2C(O)CCN2c2nc(C)cc(C(F)(F)F)c2C#N)c1 (stereo unspecified) + Cc1cnc(CNC(=O)c2c(=O)c3ccc(N4CCCN(C)CC4)nc3n3c2sc2ccccc23)cn1
Key: 87.2

Exercise: Look up viability, T/C with 922993-354-T-J3-PDC complex spheroids, viability for this compound: Nc1ccn(C2OC(CO)C(O)C2(F)F)c(=O)n1 (stereo unspecified) + Cc1[nH]c2ccc(F)cc2c1-c1nc2c3cccnc3c3ncccc3c2[nH]1
Key: 27.1
